Values from the supplement of paper PMC10037445

System: RAW-Dual
assay_summary: IRF Lucia reporter activity, fold change vs agonist alone; cytotoxicity flag (confluency mask): not cytotoxic; higher = enhanced IRF activity
assay_conditions: agonist: 3'3'-cGAMP (STING) 10 ug/mL
The full ranking holds about 2,900 compounds; the median of “IRF Lucia reporter activity, fold change vs agonist alone” is about 0.9, and the highest 2% start at about 2.8. This is one part of a sample in which the highest values are shown more often than they occur.
property: IRF Lucia reporter activity
Quick one: just the number, no unit, thanks!

Consider the compound shown here: Cc1cc(/C=C/C#N)cc(C)c1Nc1ccnc(Nc2ccc(C#N)cc2)n1 (library stock concentration (final ~1000-fold dilution): 10 mM) What is its recorded IRF Lucia reporter activity?
0.03

Consider the compound shown here: CC(C)Cc1ccc([C@@H](C)C(=O)O)cc1 (library stock concentration (final ~1000-fold dilution): 10 mM) What is its recorded IRF Lucia reporter activity?
0.953

Consider the compound shown here: NC1C(O)OC(CO)C(O)C1O (stereo not drawn) (library stock concentration (final ~1000-fold dilution): 10 mM) What is its recorded IRF Lucia reporter activity?
0.143

----------
Tested on: RAW-Dual
assay_summary: IRF Lucia reporter activity, fold change vs agonist alone; cytotoxicity flag (confluency mask): not cytotoxic; higher = enhanced IRF activity
assay_conditions: agonist: 3'3'-cGAMP (STING) 10 ug/mL
The full ranking holds about 2,900 compounds; the median of “IRF Lucia reporter activity, fold change vs agonist alone” is about 0.9, and the highest 2% start at about 2.8. Only a selection was taken, and the highest values are over-represented in it overall.
Field: IRF Lucia reporter activity. Provide a value for each of the compounds that follow.
Quick one: just the number, no unit, thanks!

Consider the compound shown here: COC(=O)NC(C(=O)N1CCCC1c1ncc(-c2ccc3c(c2)OC(c2ccccc2)n2c-3cc3cc(-c4cnc(C5CCCN5C(=O)C(NC(=O)OC)C(C)C)[nH]4)ccc32)[nH]1)C(C)C (configuration not stated) (library stock concentration (final ~1000-fold dilution): 10 mM) What is its recorded IRF Lucia reporter activity?
1.07

Consider the compound shown here: COC(=O)NC(C(=O)N1CCCC1c1ncc(-c2ccc(-c3ccc(-c4cnc(C5CCCN5C(=O)C(NC(=O)OC)C(C)C)[nH]4)cc3)cc2)[nH]1)C(C)C.Cl.Cl (configuration not stated) (library stock concentration (final ~1000-fold dilution): 10 mM) What is its recorded IRF Lucia reporter activity?
0.948

----------
System: RAW-Dual
assay_summary: IRF Lucia reporter activity, fold change vs agonist alone; higher = enhanced IRF activity
assay_conditions: library stock concentration (final ~1000-fold dilution): 10 mM; cytotoxicity flag (confluency mask): not cytotoxic; agonist: MPLA (TLR4) […]
In all, about 2,900 compounds were measured (“IRF Lucia reporter activity, fold change vs agonist alone”: median about 0.9, highest 2% from about 2.8 on). This excerpt belongs to a sample that is enriched for the highest values.
Would you please tag the item Condition met when its IRF Lucia reporter activity is 2 or above, and Condition not met when it is below?

# bool: IRF Lucia reporter activity of Cc1ccsc1C(=CCCN1CCCC(C(=O)O)C1)c1sccc1C (configuration not stated) >= 2
Condition not met

# bool: IRF Lucia reporter activity of "O=C(Nc1ccc([N+](=O)[O-])cc1Cl)c1cc(Cl)ccc1O" >= 2
Condition not met

# bool: IRF Lucia reporter activity of NC(=O)C1CCC2CN1C(=O)N2OS(=O)(=O)O (configuration not stated) >= 2
Condition not met

# bool: IRF Lucia reporter activity of COC(=O)NC(C(=O)N1CCCC1C(=O)Nc1ccc(C2CCC(c3ccc(NC(=O)C4CCCN4C(=O)C(NC(=O)OC)C(C)C)cc3)N2c2ccc(C(C)(C)C)cc2)cc1)C(C)C (configuration not stated) >= 2
Condition not met

# bool: IRF Lucia reporter activity of COC(=O)NC(C(=O)N1CCCC1c1ncc(-c2ccc(-c3ccc(-c4cnc(C5CCCN5C(=O)C(NC(=O)OC)C(C)C)[nH]4)cc3)cc2)[nH]1)C(C)C (configuration not stated) >= 2
Condition met

# bool: IRF Lucia reporter activity of O=C(NOCC(O)CO)c1cc(Br)c(F)c(F)c1Nc1ccc(I)cc1F (configuration not stated) >= 2
Condition met

# bool: IRF Lucia reporter activity of COC(=O)C1=C(C)NC(C)=C(C(=O)OC(C)(C)CN(C)CCC(c2ccccc2)c2ccccc2)C1c1cccc([N+](=O)[O-])c1 (configuration not stated) >= 2
Condition met

# bool: IRF Lucia reporter activity of Cc1nnc(SCC2=C(C(=O)O)N3C(=O)C(NC(=O)Cn4cnnn4)C3SC2)s1 (configuration not stated) >= 2
Condition not met

# bool: IRF Lucia reporter activity of Cn1c(=O)c(F)c(Nc2ccc(I)cc2F)c2c(=O)n(CC(O)CO)cnc21 (configuration not stated) >= 2
Condition not met

# bool: IRF Lucia reporter activity of CCC1/C=C(\C)CC(C)CC(OC)C2OC(O)(C(=O)C(=O)N3CCCCC3C(=O)OC(/C(C)=C/C3CCC(Cl)C(OC)C3)C(C)C(O)CC1=O)C(C)CC2OC (configuration not stated) >= 2
Condition not met

# bool: IRF Lucia reporter activity of "CCS(=O)(=O)O.COC(=O)c1ccc2c(c1)NC(=O)/C2=C(\Nc1ccc(N(C)C(=O)CN2CCN(C)CC2)cc1)c1ccccc1" >= 2
Condition not met

# bool: IRF Lucia reporter activity of "O=C(NOCCO)c1ccc2cncn2c1Nc1ccc(I)cc1F" >= 2
Condition met

# bool: IRF Lucia reporter activity of "CCCc1nc(C)c2c(=O)[nH]c(-c3cc(S(=O)(=O)N4CCN(CC)CC4)ccc3OCC)nn12.Cl.O.O.O" >= 2
Condition not met

# bool: IRF Lucia reporter activity of "CS(=O)(=O)CCNCc1ccc(-c2ccc3ncnc(Nc4ccc(OCc5cccc(F)c5)c(Cl)c4)c3c2)o1.Cc1ccc(S(=O)(=O)O)cc1.Cc1ccc(S(=O)(=O)O)cc1.O" >= 2
Condition not met

# bool: IRF Lucia reporter activity of O=C(NOCC(O)CO)c1ccc(F)c(F)c1Nc1ccc(I)cc1F (configuration not stated) >= 2
Condition met

# bool: IRF Lucia reporter activity of COC1CC2CCC(C)C(O)(O2)C(=O)C(=O)N2CCCCC2C(=O)OC(C(C)CC2CCC(O)C(OC)C2)CC(=O)C(C)C=C(C)C(O)C(OC)C(=O)C(C)CC(C)C=CC=CC=C1C (configuration not stated) >= 2
Condition not met

# bool: IRF Lucia reporter activity of CC(C)CC(NC(=O)CNC(=O)c1cc(Cl)ccc1Cl)B(O)O (configuration not stated) >= 2
Condition not met

# bool: IRF Lucia reporter activity of CCC(C)C(=O)OC1CC(C)C=C2C=CC(C)C(CCC3CC(O)CC(=O)O3)C21 (configuration not stated) >= 2
Condition not met

# bool: IRF Lucia reporter activity of CS(=O)(=O)O.Cc1c(O)cccc1C(=O)NC(CSc1ccccc1)C(O)CN1CC2CCCCC2CC1C(=O)NC(C)(C)C (configuration not stated) >= 2
Condition met

# bool: IRF Lucia reporter activity of "Cc1ccc(NC(=O)c2ccc(CN3CCN(C)CC3)cc2)cc1Nc1nccc(-c2cccnc2)n1" >= 2
Condition not met

# bool: IRF Lucia reporter activity of "O=C(Nc1cc(C(F)(F)F)ccc1N1CCCCC1)c1ccncc1" >= 2
Condition not met

# bool: IRF Lucia reporter activity of COC1CC2CCC(C)C(O)(O2)C(=O)C(=O)N2CCCCC2C(=O)OC(C(C)CC2CCC(OCCO)C(OC)C2)CC(=O)C(C)C=C(C)C(O)C(OC)C(=O)C(C)CC(C)C=CC=CC=C1C (configuration not stated) >= 2
Condition met

# bool: IRF Lucia reporter activity of Cl.Fc1ccc(C2CCNCC2COc2ccc3c(c2)OCO3)cc1 (configuration not stated) >= 2
Condition not met

# bool: IRF Lucia reporter activity of COc1nc2ccc(Br)cc2cc1C(c1ccccc1)C(O)(CCN(C)C)c1cccc2ccccc12.O=C(O)/C=C/C(=O)O (configuration not stated) >= 2
Condition not met

# bool: IRF Lucia reporter activity of "Cc1cc(C(=O)NOCCO)c(Nc2ccc(I)cc2F)n(C)c1=O" >= 2
Condition met

# bool: IRF Lucia reporter activity of "CNCc1ccc(C)c(NC(=O)c2ccc(Nc3nc(-c4ccccc4)c4ccccc4n3)cc2)c1" >= 2
Condition not met

# bool: IRF Lucia reporter activity of "O=c1cccccc1O" >= 2
Condition not met

# bool: IRF Lucia reporter activity of COC(=O)NC(C(=O)N1CC2(CC2)CC1c1ncc(-c2ccc3c(c2)C(F)(F)c2cc(-c4ccc5nc(C6C7CCC(C7)N6C(=O)C(NC(=O)OC)C(C)C)[nH]c5c4)ccc2-3)[nH]1)C(C)C (configuration not stated) >= 2
Condition not met

# bool: IRF Lucia reporter activity of COC(=O)NC(C(=O)N1CCCC1c1ncc(-c2ccc3c(c2)OC(c2ccccc2)n2c-3cc3cc(-c4cnc(C5CCCN5C(=O)C(NC(=O)OC)C(C)C)[nH]4)ccc32)[nH]1)C(C)C (configuration not stated) >= 2
Condition not met

# bool: IRF Lucia reporter activity of COC1CC2CCC(C)C(O)(O2)C(=O)C(=O)N2CCCCC2C(=O)OC(C(C)CC2CCC(n3cnnn3)C(OC)C2)CC(=O)C(C)C=C(C)C(O)C(OC)C(=O)C(C)CC(C)C=CC=CC=C1C (configuration not stated) >= 2
Condition not met

# bool: IRF Lucia reporter activity of COC(=O)NC(C(=O)N1CCCC1c1ncc(-c2ccc(-c3ccc(-c4cnc(C5CCCN5C(=O)C(NC(=O)OC)C(C)C)[nH]4)cc3)cc2)[nH]1)C(C)C.Cl.Cl (configuration not stated) >= 2
Condition met
